The origin of these recorded values is ChEMBL document CHEMBL4825726.

# study target: Galectin-1 (Homo sapiens, UniProt P09382)
# Sequence (P09382 whole entry): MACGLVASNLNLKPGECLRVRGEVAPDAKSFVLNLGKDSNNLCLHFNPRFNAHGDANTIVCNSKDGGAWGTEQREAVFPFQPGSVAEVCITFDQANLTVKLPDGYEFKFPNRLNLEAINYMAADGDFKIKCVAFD
# assay text: Binding affinity to human Gal-1 assessed as change in entropy by isothermal titration calorimetry
observation type: -TdeltaS (kJ/mol)

{"columns": ["molecule", "study target", "-TdeltaS, kJ/mol"],
 "data": [
  ["OC[C@H]1O[C@@H](OC[C@H]2OC(O)[C@H](O)[C@@H](O)[C@@H]2O)[C@H](O)[C@@H](O)[C@H]1O (stereo partly specified)", "Galectin-1 (Homo sapiens, UniProt P09382)", -8.9],
  ["CC(=O)N[C@H]1C(O)O[C@H](CO)[C@@H](O)[C@@H]1O[C@@H]1O[C@H](CO)[C@H](O)[C@H](O)[C@H]1O (stereo partly specified)", "Galectin-1 (Homo sapiens, UniProt P09382)", 26],
  ["CC(=O)N[C@H]1C(O)O[C@H](CO)[C@@H](O[C@@H]2O[C@H](CO)[C@H](O)[C@H](O)[C@H]2O)[C@@H]1O (stereo partly specified)", "Galectin-1 (Homo sapiens, UniProt P09382)", 27.4],
  ["CC(=O)N[C@H]1C(O)O[C@H](CO[C@@H]2O[C@H](CO)[C@H](O)[C@H](O)[C@H]2O)[C@@H](O)[C@@H]1O (stereo partly specified)", "Galectin-1 (Homo sapiens, UniProt P09382)", -0.9]
]}

I: OC[C@H]1O[C@@H](O[C@H]2[C@H](O)[C@@H](O)C(O)O[C@@H]2CO)[C@H](O)[C@@H](O)[C@H]1O (stereo partly specified)
II: CC(=O)N[C@H]1[C@H](O[C@H]2[C@H](O)[C@@H](NC(C)=O)C(O)O[C@@H]2CO)O[C@H](CO[C@@H]2O[C@H](CO)[C@H](O)[C@H](O)[C@H]2O)[C@@H](O)[C@@H]1O (stereo partly specified)
Problem: Given the entries I and II , determine which has the lower reported -TdeltaS. Refer to your chosen entry by its label in the reply.
II

====

# study target: Galectin-1 (Homo sapiens)
# assay text: Binding affinity to human Gal-1 assessed as Gibbs free energy change by isothermal titration calorimetry
observation type: deltaG (kcal/mol)

{"columns": ["molecule", "unit string", "deltaG"],
 "data": [
  ["CC(=O)N[C@H]1C(O)O[C@H](CO)[C@@H](O)[C@@H]1O[C@@H]1O[C@H](CO)[C@H](O)[C@H](O)[C@H]1O (stereo not given in full)", "kcal/mol", -5.19],
  ["CC(=O)N[C@H]1[C@H](O[C@H]2[C@H](O)[C@@H](NC(C)=O)C(O)O[C@@H]2CO)O[C@H](CO[C@@H]2O[C@H](CO)[C@H](O)[C@H](O)[C@H]2O)[C@@H](O)[C@@H]1O (stereo not given in full)", "kcal/mol", -4.25],
  ["CC(=O)N[C@H]1C(O)O[C@H](CO[C@@H]2O[C@H](CO)[C@H](O)[C@H](O)[C@H]2O)[C@@H](O)[C@@H]1O (stereo not given in full)", "kcal/mol", -4.49],
  ["OC[C@H]1O[C@@H](OC[C@H]2OC(O)[C@H](O)[C@@H](O)[C@@H]2O)[C@H](O)[C@@H](O)[C@H]1O (stereo not given in full)", "kcal/mol", -3.92],
  ["CC(=O)N[C@H]1C(O)O[C@H](CO)[C@@H](O[C@@H]2O[C@H](CO)[C@H](O)[C@H](O)[C@H]2O)[C@@H]1O (stereo not given in full)", "kcal/mol", -5.47]
]}

====

# study target: Galectin-1 (Homo sapiens, UniProt P09382)
# assay text: Binding affinity to human Gal-1 assessed as change in enthalpy by isothermal titration calorimetry
observation type: deltaH (kcal/mol)

Reference set (3 entries):
{"columns": ["compound", "unit string", "deltaH"],
 "data": [
  ["OC[C@H]1O[C@@H](O[C@H]2[C@H](O)[C@@H](O)C(O)O[C@@H]2CO)[C@H](O)[C@@H](O)[C@H]1O (stereo partly specified)", "kcal/mol", -10.8],
  ["CC(=O)N[C@H]1C(O)O[C@H](CO[C@@H]2O[C@H](CO)[C@H](O)[C@H](O)[C@H]2O)[C@@H](O)[C@@H]1O (stereo partly specified)", "kcal/mol", -4.28],
  ["CC(=O)N[C@H]1C(O)O[C@H](CO)[C@@H](O)[C@@H]1O[C@@H]1O[C@H](CO)[C@H](O)[C@H](O)[C@H]1O (stereo partly specified)", "kcal/mol", -11.4]
]}

a: OC[C@H]1O[C@@H](OC[C@H]2OC(O)[C@H](O)[C@@H](O)[C@@H]2O)[C@H](O)[C@@H](O)[C@H]1O (stereo partly specified)
b: CC(=O)N[C@H]1C(O)O[C@H](CO)[C@@H](O[C@@H]2O[C@H](CO)[C@H](O)[C@H](O)[C@H]2O)[C@@H]1O (stereo partly specified)
c: CC(=O)N[C@H]1[C@H](O[C@H]2[C@H](O)[C@@H](NC(C)=O)C(O)O[C@@H]2CO)O[C@H](CO[C@@H]2O[C@H](CO)[C@H](O)[C@H](O)[C@H]2O)[C@@H](O)[C@@H]1O (stereo partly specified)
Order the items by recorded deltaH; the first position goes to the largest value. Thanks in advance for listing the labels in the requested order.
a, c, b

====

# study target: Galectin-1 (Homo sapiens)
# assay text: Binding affinity to human Gal-1 assessed as change in entropy by isothermal titration calorimetry
observation type: deltaS (J/mol.K)

{"columns": ["compound", "unit string", "deltaS"],
 "data": [
  ["OC[C@H]1O[C@@H](O[C@H]2[C@H](O)[C@@H](O)C(O)O[C@@H]2CO)[C@H](O)[C@@H](O)[C@H]1O (stereo not given in full)", "J/mol.K", -80.2],
  ["CC(=O)N[C@H]1C(O)O[C@H](CO)[C@@H](O)[C@@H]1O[C@@H]1O[C@H](CO)[C@H](O)[C@H](O)[C@H]1O (stereo not given in full)", "J/mol.K", -87.2],
  ["CC(=O)N[C@H]1C(O)O[C@H](CO[C@@H]2O[C@H](CO)[C@H](O)[C@H](O)[C@H]2O)[C@@H](O)[C@@H]1O (stereo not given in full)", "J/mol.K", 3]
]}

1: CC(=O)N[C@H]1[C@H](O[C@H]2[C@H](O)[C@@H](NC(C)=O)C(O)O[C@@H]2CO)O[C@H](CO[C@@H]2O[C@H](CO)[C@H](O)[C@H](O)[C@H]2O)[C@@H](O)[C@@H]1O (stereo not given in full)
2: CC(=O)N[C@H]1C(O)O[C@H](CO)[C@@H](O[C@@H]2O[C@H](CO)[C@H](O)[C@H](O)[C@H]2O)[C@@H]1O (stereo not given in full)
Problem: Given the entries 1 and 2 , determine which has the lower reported deltaS. Refer to your chosen entry by its label in the reply.
2

====

# study target: Galectin-1 (Homo sapiens)
# assay text: Binding affinity to human Gal-1 assessed as inhibition of Gal-1 binding to immobilized asialofetuin pretreated with Gal-1 for 2 hrs followed by incubation with asialofetuin for 2 hrs by competitive solid phase assay relative to lactose
# condition info: time 4.0 hrs
observation type: Ratio

{"columns": ["compound", "Ratio"],
 "data": [
  ["CC(=O)N[C@H]1C(O)O[C@H](CO)[C@@H](O[C@@H]2O[C@H](CO)[C@H](O)[C@H](O)[C@H]2O)[C@@H]1O (some centres undefined)", 2.37]
]}

1: CC(=O)N[C@H]1[C@H](O[C@H]2[C@H](O)[C@@H](NC(C)=O)C(O)O[C@@H]2CO)O[C@H](CO[C@@H]2O[C@H](CO)[C@H](O)[C@H](O)[C@H]2O)[C@@H](O)[C@@H]1O (some centres undefined)
2: CC(=O)N[C@H]1C(O)O[C@H](CO)[C@@H](O)[C@@H]1O[C@@H]1O[C@H](CO)[C@H](O)[C@H](O)[C@H]1O (some centres undefined)
Pick the one with the larger Ratio: 1 vs 2 Refer to your chosen entry by its label in the reply.
2
(2: 2.37, 1: 0.22)
